- target or test system: human Smo (amino acids 181-787) (Homo sapiens, UniProt Q99835)
- Construct: expressed in transfected cells; membrane preparation
- Sequence (Q99835 181-787): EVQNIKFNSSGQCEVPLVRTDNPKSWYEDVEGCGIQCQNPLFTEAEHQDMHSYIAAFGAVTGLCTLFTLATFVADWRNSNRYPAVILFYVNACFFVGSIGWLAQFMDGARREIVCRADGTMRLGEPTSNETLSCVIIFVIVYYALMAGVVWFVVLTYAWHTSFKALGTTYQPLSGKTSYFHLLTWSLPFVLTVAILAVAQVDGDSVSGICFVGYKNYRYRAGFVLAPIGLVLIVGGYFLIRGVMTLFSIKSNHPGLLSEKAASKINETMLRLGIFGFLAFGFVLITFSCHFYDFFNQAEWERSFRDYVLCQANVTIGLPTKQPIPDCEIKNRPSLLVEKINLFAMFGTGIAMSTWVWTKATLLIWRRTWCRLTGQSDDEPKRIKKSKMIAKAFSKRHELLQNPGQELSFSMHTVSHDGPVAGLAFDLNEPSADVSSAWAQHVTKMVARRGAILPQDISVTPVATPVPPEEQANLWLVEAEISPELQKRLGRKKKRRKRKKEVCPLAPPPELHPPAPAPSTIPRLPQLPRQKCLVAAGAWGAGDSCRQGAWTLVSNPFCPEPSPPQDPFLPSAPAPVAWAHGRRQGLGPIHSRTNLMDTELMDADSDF
- assay method text: Smo radioligand competition binding assay (displacement of 3H-PF-03451358 from HEK293 membranes)
- measurement conditions: 0.05 μM test compound; displacement of 3H-PF-03451358; read-out: SMO % inh. @ 0.05 μM
// inhibition at 0.05 µM lookup, one value per entry
Reply numerically in %, unit not repeated.

Study these solved cases before continuing.
>  <smiles record>
Cc1nnc(C)n1C1CCN(c2cc(-c3nc4ccccc4n3C)c(Cl)cn2)CC1

>  <inhibition at 0.05 µM [%]>
59

$$$$
>  <smiles record>
CC(=O)N1CCC(N(C)c2cc(-c3nc4ccccc4n3C)c(Cl)cn2)CC1

>  <inhibition at 0.05 µM [%]>
97

$$$$

Which inhibition at 0.05 µM is reported for this compound? `CC(=O)N1CCN(c2cc(-c3nc4ccccc4n3C)c(Cl)cn2)CC1`
90

----------
- target or test system: human Smo (amino acids 181-787) (Homo sapiens)
- Construct: expressed in transfected cells; membrane preparation
- assay method text: Smo radioligand competition binding assay (displacement of 3H-PF-03451358 from HEK293 membranes)
- measurement conditions: 0.05 μM test compound; displacement of 3H-PF-03451358; read-out: SMO % inh. @ 0.05 μM
// inhibition at 0.05 µM lookup, one value per entry
Reply numerically in %, unit not repeated.

Study these solved cases before continuing.
>  <compound>
Cn1c(-c2cc(N3CCN(S(C)(=O)=O)CC3)ncc2Cl)nc2ccccc21 [Example A-4]

>  <unit abbrev>
%

>  <inhibition at 0.05 µM>
91

$$$$
>  <compound>
C[C@@H]1CN(S(C)(=O)=O)CCN1c1cc(-c2nc3ccccc3n2C)c(Cl)cn1 [Example A-166]

>  <unit abbrev>
%

>  <inhibition at 0.05 µM>
102

$$$$
>  <compound>
Cc1nccc(C2(O)CCN(c3cc(-c4nc5ccccc5n4C)c(Cl)cn3)C2)n1 (stereo not drawn) [Example A-123]

>  <unit abbrev>
%

>  <inhibition at 0.05 µM>
59

$$$$
>  <compound>
Cn1c(-c2ccnc(N3CCN(S(C)(=O)=O)CC3)n2)nc2ccccc21 [Example C-4]

>  <unit abbrev>
%

>  <inhibition at 0.05 µM>
45

$$$$
>  <compound>
CC(=O)NC1CCN(c2cc(-c3nc4ccccc4n3C)c(Cl)cn2)C1 (stereo in doubt) [Example A-134]

>  <unit abbrev>
%

>  <inhibition at 0.05 µM>
48

$$$$

Which inhibition at 0.05 µM is reported for this compound? CC(=O)N1CCN(c2cc(-c3nc4ccccc4n3C)ccn2)CC1 [Example A-29]
78

----------
// inhibition at 0.05 µM lookup, one value per entry
- target or test system: human Smo (amino acids 181-787) (Homo sapiens)
- Construct: expressed in transfected cells; membrane preparation
- assay method text: Smo radioligand competition binding assay (displacement of 3H-PF-03451358 from HEK293 membranes)
- measurement conditions: 0.05 μM test compound; displacement of 3H-PF-03451358; read-out: SMO % inh. @ 0.05 μM
Reply numerically in %, unit not repeated.

Study these solved cases before continuing.
>  <compound>
Cn1c(-c2cc(N3C[C@H]4CC[C@@H](C3)N4)ncc2Cl)nc2ccccc21

>  <target or test system>
human Smo (amino acids 181-787) (Homo sapiens)

>  <inhibition at 0.05 µM [%]>
91

$$$$
>  <compound>
Cn1c(-c2cc(N3CCN(C4CCS(=O)(=O)C4)CC3)ncc2Cl)nc2ccccc21 (centres unmarked)

>  <target or test system>
human Smo (amino acids 181-787) (Homo sapiens)

>  <inhibition at 0.05 µM [%]>
90

$$$$
>  <compound>
CNC(=O)N1CCN(c2cc(-c3nc4ccccc4n3C)c(F)cn2)CC1

>  <target or test system>
human Smo (amino acids 181-787) (Homo sapiens)

>  <inhibition at 0.05 µM [%]>
88

$$$$
>  <compound>
CC(=O)N1CCCN(c2cc(-c3nc4cccnc4n3C)c(Cl)cn2)CC1

>  <target or test system>
human Smo (amino acids 181-787) (Homo sapiens)

>  <inhibition at 0.05 µM [%]>
92

$$$$
>  <compound>
Cn1nc2n(c1=O)CCN(c1cc(-c3nc4ccccc4n3C)c(Cl)cn1)CC2

>  <target or test system>
human Smo (amino acids 181-787) (Homo sapiens)

>  <inhibition at 0.05 µM [%]>
92

$$$$
>  <compound>
Cn1c(-c2cc(N3CCOCC(Cc4cncnc4)C3)ncc2Cl)nc2ccccc21 (centres unmarked)

>  <target or test system>
human Smo (amino acids 181-787) (Homo sapiens)

>  <inhibition at 0.05 µM [%]>
101

$$$$
>  <compound>
Cn1c(-c2cc(N3CCC(CO)(CCO)C3)ncc2Cl)nc2ccccc21 (centres unmarked)

>  <target or test system>
human Smo (amino acids 181-787) (Homo sapiens)

>  <inhibition at 0.05 µM [%]>
90

$$$$
>  <compound>
CCn1c(-c2cc(N3CCN(C(C)=O)CC3)ncc2Cl)nc2ccccc21

>  <target or test system>
human Smo (amino acids 181-787) (Homo sapiens)

>  <inhibition at 0.05 µM [%]>
63

$$$$
>  <compound>
Cn1c(-c2cc(N3CCC(N4CCCC4=O)CC3)ncc2Cl)nc2ccccc21

>  <target or test system>
human Smo (amino acids 181-787) (Homo sapiens)

>  <inhibition at 0.05 µM [%]>
91

$$$$
>  <compound>
Cn1c(-c2cc(N3CCC4(CC3)CC(O)CCO4)ncc2Cl)nc2ccccc21 (centres unmarked)

>  <target or test system>
human Smo (amino acids 181-787) (Homo sapiens)

>  <inhibition at 0.05 µM [%]>
96

$$$$

Which inhibition at 0.05 µM is reported for this compound? Cn1c(-c2cc(N3CCOCC(Cc4ncccn4)C3)ncc2Cl)nc2ccccc21 (centres unmarked)
72

Do the same for `COCCc1nnc2n1CCN(c1cc(-c3nc4ccccc4n3C)c(Cl)cn1)C2` please
91

Do the same for `Cn1c(-c2cc(N3CCS(=O)(=O)CC3)ncc2Cl)nc2ccccc21` please
88

Do the same for `COC(=O)NC1CCN(c2cc(-c3nc4ccccc4n3C)ccn2)CC1` please
84

----------
- target or test system: human Smo (amino acids 181-787) (Homo sapiens, UniProt Q99835)
endpoint label: IC50 (nM)
Reply numerically in nM, unit not repeated.

Study these solved cases before continuing.
>  <compound>
CC(=O)NCC1CCCN(c2cc(-c3nc4ccccc4n3C)c(Cl)cn2)C1 (centres unmarked) [Example A-62]

>  <target or test system>
human Smo (amino acids 181-787) (Homo sapiens, UniProt Q99835)

>  <IC50 [nM]>
24

$$$$
>  <compound>
Cn1c(-c2cc(N3CCC(C(=O)NCC(C)(C)O)CC3)ncc2Cl)nc2ccccc21 [Example A-212]

>  <target or test system>
human Smo (amino acids 181-787) (Homo sapiens, UniProt Q99835)

>  <IC50 [nM]>
12

$$$$
>  <compound>
Cn1c(-c2nc(N3CCC(O)CC3)ccc2Cl)nc2ccccc21 [Example B-6]

>  <target or test system>
human Smo (amino acids 181-787) (Homo sapiens, UniProt Q99835)

>  <IC50 [nM]>
10

$$$$
>  <compound>
Cn1c(-c2cc(N3CC[C@@H](O)[C@H](O)C3)ncc2Cl)nc2ccccc21 [Example A-63]

>  <target or test system>
human Smo (amino acids 181-787) (Homo sapiens, UniProt Q99835)

>  <IC50 [nM]>
25

$$$$

Attention now turns to another entry.
Which IC50 is reported for this compound? Cn1c(-c2cc(N3C[C@H]4C[C@@H]3CN4S(C)(=O)=O)ncc2Cl)nc2ccccc21 [Example A-146]
202

----------
- target or test system: human Smo (amino acids 181-787) (Homo sapiens)
- Construct: expressed in transfected cells; membrane preparation
- assay method text: Smo radioligand competition binding assay (displacement of 3H-PF-03451358 from HEK293 membranes)
- measurement conditions: 0.05 μM test compound; displacement of 3H-PF-03451358; read-out: SMO % inh. @ 0.05 μM
endpoint label: inhibition at 0.05 µM (%)
Reply numerically in %, unit not repeated.

Which inhibition at 0.05 µM is reported for this molecule? `CN(C1CCN(c2cc(-c3nc4ccccc4n3C)c(F)cn2)CC1)S(C)(=O)=O`
102

Do the same for `Cn1c(-c2cc(N3C[C@@H](O)[C@@H](O)C3)ncc2Cl)nc2ccccc21` please
53

Do the same for `Cn1c(-c2cc(NCCS(N)(=O)=O)ncc2Cl)nc2ccccc21` please
62

Do the same for `C[C@H]1CN(S(C)(=O)=O)CCN1c1cc(-c2nc3ccccc3n2C)c(Cl)cn1` please
99

Do the same for `CCNC(=O)NC1CCN(c2cc(-c3nc4ccccc4n3C)c(F)cn2)CC1` please
95

Do the same for `Cn1c(-c2ccnc(N3CCC(O)CC3)c2)nc2ccccc21` please
79

Do the same for `Cn1c(-c2cc(N3CCC(N4CCNC(=O)CC4)CC3)ncc2Cl)nc2ccccc21` please
88
